Please respond with reported inhibition for every item in the list.
assay: NOD1 signaling inhibitors, primary screen, cell-based, luminescence, uHTS (AID 1578);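 also: HEK-293T reporter cells stimulated with the NOD1 agonist gamma-tri-DAP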
test_settings: NOD1-driven NF-kB luciferase reporter cells, at 4 µM, hits give high values
Out of some 290,000 compounds screened, about 3,000 (1%) were called active. Many of the other results were omitted from the sample, so actives are more common in it than they were.
Numbers only, in %.

Hi! Can you tell me inhibition for each of these compounds?
1. Cc1c(C(=O)Nc2ccc3c(c2)OCO3)sc2nc(-c3ccccc3)cn12
2. COc1cc(/C=N\NC(=O)c2ccc(-c3ccccc3)cc2)ccc1OCC(N)=O
3. CC(C)C(NC(=O)c1ccc(F)cc1)C(=O)NCC1CCCO1 (stereo unspecified)
4. COc1ncnc2c1oc1nc(C(C)C)c3c(c12)CC(C)(C)OC3

-35.7
-24.5
-6.2
-12.3

Hi! Can you tell me inhibition for each of these compounds?
1. Cc1c(C(=O)Nc2ccccc2)sc2nc(-c3ccccc3)cn12
2. COCCn1nnnc1C(CC(C)C)N1CCN(c2ccccc2)CC1 (stereo unspecified)

1. -15.4
2. -24.8

----------
assay: NOD1 signaling inhibitors, primary screen, cell-based, luminescence, uHTS (AID 1578);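 also: HEK-293T reporter cells stimulated with the NOD1 agonist gamma-tri-DAP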
test_settings: NOD1-driven NF-kB luciferase reporter cells, at 4 µM, hits give high values
Screen size: about 290,000 compounds; about 3,000 (1%) were called active. Shown is part of a subset that was picked to be rich in actives.
Please respond with reported inhibition for every item in the list.
Numbers only, in %.

molecule | inhibition (%)
CCOc1cc(/C=C2/NC(=S)NC2=O)ccc1OCc1ccc([N+](=O)[O-])cc1 | -30

Hi! Can you tell me inhibition for each of these molecules?
1. Cc1ccc(CSC2=NCCN2C(=O)C(C)Oc2ccccc2)cc1 (stereo unspecified)
2. CN(C(=O)Nc1ccccc1)C1CCCc2ccccc21 (stereo unspecified)
3. O=C(NCc1nnc(SCC(=O)N2CCCc3ccccc32)o1)c1ccco1
4. CN(C)S(=O)(=O)c1cccc(C(=O)Nc2ccccc2N2CCCCC2)c1
5. COc1nc(NC(C)(C)C)nc(Oc2ccc(=O)n(-c3ccccc3)n2)n1
6. CCOc1cc(/C=N/O)ccc1OCc1ccc([N+](=O)[O-])cc1
7. CCc1ccc(-n2nnnc2SCC(=O)Nc2ccc(NC(C)=O)cc2)cc1

[-38.3, -3.4, -0.1, -14.5, -3.3, -20.2, -3.5]

Hi! Can you tell me inhibition for each of these molecules?
1. Cc1ccccc1CC(=O)NC1CCCc2ccccc21 (stereo unspecified)
2. CC(C)Cc1nnc(NC(=O)CCC(=O)NC2CCCc3ccccc32)s1 (stereo unspecified)
3. CC(C1CC1)N(Cc1ccccc1)C(=O)NC(=O)c1ccc(F)cc1 (stereo unspecified)

[58.1, -25.2, -23.2]

----------
assay: NOD1 signaling inhibitors, primary screen, cell-based, luminescence, uHTS (AID 1578);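 also: HEK-293T reporter cells stimulated with the NOD1 agonist gamma-tri-DAP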
test_settings: NOD1-driven NF-kB luciferase reporter cells, at 4 µM, hits give high values
The whole screen tested about 290,000 compounds, of which about 3,000 (1%) were called active. This is one part of a sample in which actives are shown more often than they occur.
recorded_metric: inhibition (%)
Give bare numbers, in %.

A selection of reference data follows.
compound | unit_tag | value_measured
Cc1ccc(CNC(=O)Cn2cncn2)cc1 | % | 8.6
C=CCc1ccc(O)c(-c2ccc(O)c(CC=C)c2)c1 | % | -6.9
COc1ccc(CNC(=O)Cn2cncn2)cc1OC | % | -12.9
N#Cc1c(Nc2ccccc2)sc(C(=O)c2ccccc2)c1N | % | 0.9
C=CCc1cc(S(=O)(=O)c2ccc(O)c(CC=C)c2)ccc1O | % | 47.4

Hi! Can you tell me inhibition for each of these compounds?
1. O=C(Cn1cncn1)NCc1ccc(Cl)cc1
2. O=C(O)C(Cc1ccccc1)N1C(=O)/C(=C/c2cccs2)SC1=S (configuration not stated)
3. COc1ccc(N(CC(=O)NCc2ccco2)C(=O)CNS(=O)(=O)c2ccc(Cl)cc2)cc1
4. CCC(C)(C)NC(=O)CN(C(=O)CNS(=O)(=O)c1ccc(F)cc1)c1ccc2c(c1)OCCO2
5. Nc1cc(S(=O)(=O)c2ccc(O)c(N)c2)ccc1O
6. COc1ccc(N(C(=O)c2ccco2)C(C(=O)NC2CCCC2)c2cccs2)cc1OC (configuration not stated)
7. Nc1ncc2c(n1)-c1cc(Cl)ccc1SC2

1. 66.1
2. 3
3. 4.6
4. -13
5. -4.4
6. 2.7
7. -6.1

----------
assay: NOD1 signaling inhibitors, primary screen, cell-based, luminescence, uHTS (AID 1578);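 also: HEK-293T reporter cells stimulated with the NOD1 agonist gamma-tri-DAP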
test_settings: NOD1-driven NF-kB luciferase reporter cells, at 4 µM, hits give high values
Among all 290,000 compounds or so, about 3,000 (1%) were called active. This excerpt belongs to a sample that is enriched for actives.
Please respond with reported inhibition for every item in the list.
Answers are plain numbers, in %.

A selection of reference data follows.
molecule | value_measured
CCOC(=O)N1CCN(C(=O)c2ccc(Cn3c(=S)[nH]c4cc(C(=O)OC)ccc4c3=O)cc2)CC1 | -11
Cc1cc(C)cc(NC(=S)NCc2cccnc2)c1 | -23.4
C[n+]1c(/C=C/c2ccc(O)cc2)ccc2ccccc21 | -15.4
O=Nc1c(O)n(Cc2cccc(C(F)(F)F)c2)c2ccccc12 | 82.8

Hi! Can you tell me inhibition for each of these molecules?
1. CN1C=C/C(=C\c2cc[n+](C)c3ccccc23)c2ccccc21
2. CC(c1ccco1)N(C(=O)C12CC3CC(CC(C3)C1)C2)c1ccccn1 (stereo unspecified)
3. CC(c1ccco1)N(C(=O)C12CC3CC(CC(C)(C3)C1)C2)c1ccccn1 (stereo unspecified)
4. COc1ccc(-c2ncccc2OC(=O)C23CC4CC(CC(C4)C2)C3)cc1OC
5. O=C(c1cc2ccccc2oc1=O)N(Cc1ccc2c(c1)OCO2)Cc1ccco1
6. Cc1cc(C(=O)CSc2nncn2C)c(C)n1-c1ccccc1

20.8
17.1
31.7
-13.7
-2.2
-35.2

Hi! Can you tell me inhibition for each of these molecules?
1. CC(c1ccco1)N(C(=O)C12CC3(C)CC(C)(CC(C)(C3)C1)C2)c1ccccn1 (stereo unspecified)
2. COc1ccc(Cn2c(=O)[nH]c3cc(C(=O)N4CCN(c5ccccn5)CC4)ccc3c2=O)cc1
3. CCOc1ccc(NC(=O)CCNC(=O)Cn2ccc3ccccc3c2=O)cc1
4. Cc1cccc(NC(=S)NC(=O)c2oc3ccccc3c2C)n1
5. COc1cccc(/C=N/c2oc(-c3ccccc3)cc2C#N)c1O
6. Cc1cc(C(=O)CSc2nnc3ccccn23)c(C)n1-c1ccccc1

-2
-10.7
-20.7
-35.5
-11
82

----------
assay: NOD1 signaling inhibitors, primary screen, cell-based, luminescence, uHTS (AID 1578);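 also: HEK-293T reporter cells stimulated with the NOD1 agonist gamma-tri-DAP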
test_settings: NOD1-driven NF-kB luciferase reporter cells, at 4 µM, hits give high values
Out of some 290,000 compounds screened, about 3,000 (1%) were called active. Only a selection was taken, and actives are over-represented in it overall.
Please respond with reported inhibition for every item in the list.
One number for each entry, in %.

Hi! Can you tell me inhibition for each of these compounds?
1. NC(=O)C1CCN(Cc2ccc(OCc3ccccc3)cc2)CC1
2. Cc1[nH]nc(Nc2ccccc2)c1[N+](=O)[O-]
3. Cc1ccc(NS(=O)(=O)c2cn(C)c(=O)n(C)c2=O)cc1C
4. Cc1ccc(Nc2n[nH]c(C)c2[N+](=O)[O-])cc1
5. Cc1[nH][nH]c(=O)c1C(c1c(C)[nH][nH]c1=O)c1cn(Cc2cccc3ccccc23)c2ccccc12
6. O=C1/C(=C/c2ccc(F)cc2)CCC1C1CCCC1 (stereo not given)

1: -29.8; 2: 75.5; 3: -34.3; 4: -38.4; 5: 10.6; 6: -42.1

----------
assay: NOD1 signaling inhibitors, primary screen, cell-based, luminescence, uHTS (AID 1578);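 also: HEK-293T reporter cells stimulated with the NOD1 agonist gamma-tri-DAP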
test_settings: NOD1-driven NF-kB luciferase reporter cells, at 4 µM
Among all 290,000 compounds or so, about 3,000 (1%) were called active. Rule as the data show it: active = inhibition mostly above about 36% (no sharp cut-off); inactive = mostly below about 34%. The list comes from a sample in which actives are over-represented; it also holds close analogues and randomly drawn compounds.
Please answer using one outcome listed in True (active), False (inactive)

Check out these entries, answers already filled in.
molecule | class_assignment
CCn1c(Cc2ccc(OC)cc2)nnc1SCc1nc2ccccc2c(=O)[nH]1 | False
CCOc1ccc(CN(C)C(=O)CCl)cc1 | False
CC(=O)c1c(O)c2ccccc2n(C)c1=O | False
COc1ccc(CN(C)C(=O)CCl)cc1 | False
CC(=O)c1c(O)c2ccccc2n(C2CCCCC2)c1=O | True
CCOC(=O)C1CCCN(C(=O)CCn2nnnc2CN2CCOCC2)C1 (configuration not stated) | False
CN(Cc1ccc(Cl)s1)C(=O)CCl | True
CCCCN(Cc1ccccc1)S(=O)(=O)c1c(N)n(C)c(=O)n(C)c1=O | False
c1ccc(OCc2nc3c4c(ncn3n2)-c2ccccc2CC42CCCC2)cc1 | False
CCOC(=O)C1CCCN(C(=O)CCCn2nnnc2CN2CCOCC2)C1 (configuration not stated) | True

Please state the recorded outcome for this molecule: CC(NC(=O)/C(=C\c1ccco1)NC(=O)c1ccco1)C(=O)O (configuration not stated)
False

Also need CC(=O)C1=C(O)C(=O)N(Cc2ccco2)C1c1cccc(F)c1 (configuration not stated) , thanks.
False
